- assay-protocol: mn = molality of the nth substance listed, in mol/kg
- test-parameters: 293.15 K; 101.3 kPa; Liquid; Capillary tube (Ostwald / Ubbelohde) method; m1 = 0.2

{"columns": ["compound", "unit-info", "viscosity"],
 "data": [
  ["N=C(N)NCCC[C@H](N)C(=O)O [L-arginine] + O", "mPa·s", 1.108],
  ["NCC(=O)O [2-aminoacetic acid] + O", "mPa·s", 1.029],
  ["C[C@H](N)C(=O)O [(S)-2-aminopropanoic acid] + O", "mPa·s", 1.053],
  ["OC[C@@H](O)[C@@H](O)[C@H](O)[C@H](O)CO [D-mannitol] + O", "mPa·s", 1.104]
]}
